meta.source: PubChem BioAssay (NCI)

System: HCC-2998 colon
Experimental Details: NCI tumour cell line growth inhibition, 48 h
Recorded TGI for the following molecules
Observable: TGI (µM)

>>> print(df.to_string())
                                   molecule  comparative_sign  result_number
0  O=C1CC(C(=O)N2CCCCC2)n2c(=O)n(-c3ccccc3)c(=O)n2C1 (stereo unspecified)                 >            100
1  OCC1OC(n2cnc3c(=S)nc[nH]c32)C(O)C1O (stereo unspecified)                 >           2500
2  COC(=O)C(F)C(Br)C(=O)OC (stereo unspecified)                 =             21
3  O=C(CCCSc1nc(-c2ccccc2)cc(-c2ccc(Cl)cc2)n1)NO                 =           13.2
4  COc1ccc(-c2cc(=O)c3cc4c(cc3[nH]2)OCO4)cc1                 >            100
5  COc1cc2c3c(n(C)c(=O)c2cc1OC)-c1cc2c(cc1/C3=C\C(N)CN)OCO2 (stereo unspecified)                 =             50

----------
System: SW-620 colon
Experimental Details: NCI tumour cell line growth inhibition, 48 h
Returns one of YES or NO; YES when TGI is >= 7 µM.

Compound	Measured Target	Label
COC(=O)C1CCC(=O)N1C(c1ccccc1)c1cc(OC)c(OC)c(OC)c1 (stereo not drawn)	SW-620 colon	YES
CSc1ccccc1C#Cc1ccccc1C#CCCCCO	SW-620 colon	YES
C=C1C(=O)O[C@H]2[C@H]3O[C@@H](C[C@@H]12)[C@@]1(C)CC[C@H](O1)C(C)=CCC[C@H]3C	SW-620 colon	YES
c1ccc(P(CCP(CCP(c2ccccc2)c2ccccc2)c2ccccc2)CCP(c2ccccc2)c2ccccc2)cc1 (stereo not drawn)	SW-620 colon	YES
CSC1(SC2=NCCN2)SC2(NCCN2)S1	SW-620 colon	YES
O=C(NN1C(=O)CSC1c1ccc(C(F)(F)F)cc1)c1ccncc1 (stereo not drawn)	SW-620 colon	YES
NC(CCCCNC(=O)CNC(=O)OCc1ccccc1)C(=O)NC(CCCCNC(=O)CNC(=O)OCc1ccccc1)C(=O)NC(CCCCNC(=O)CNC(=O)OCc1ccccc1)C(=O)NC(CCCCNC(=O)CNC(=O)OCc1ccccc1)C(=O)NC(CCCCNC(=O)CNC(=O)OCc1ccccc1)C(=O)NC(CCCCNC(=O)CNC(=O)OCc1ccccc1)C(=O)O (stereo not drawn)	SW-620 colon	YES
CCCCOCCOC1=CC(=O)c2c(O)ccc(O)c2C1=O	SW-620 colon	NO
CCCCCCCOc1c(OC)cc(C2CC(=O)Nc3c2c(C)nn3-c2nc3ccccc3[nH]2)cc1OC (stereo not drawn)	SW-620 colon	NO
O=c1[nH]c(-c2ccc(-c3nc4cc([N+](=O)[O-])ccc4c(=O)[nH]3)cc2)nc2cc([N+](=O)[O-])ccc12	SW-620 colon	YES
CCCC(Sc1ccccc1)P(=O)(c1ccccc1)c1ccccc1 (stereo not drawn)	SW-620 colon	YES
CC12c3c4cc(Br)cc3Oc3cc(Br)cc(c31)Oc1cc(Br)cc(c12)O4	SW-620 colon	YES
COC1=CC(=O)c2c(O)c3c(c(O)c2C1=O)C=C(C)OC3O (stereo not drawn)	SW-620 colon	NO
CC(=O)NC1CC2Oc3ccc(C)cc3C(C)(O2)C1O (stereo not drawn)	SW-620 colon	YES
COc1cc(C2C3=C(COC3=O)Nc3cc4c(cc32)CCC4)cc2c1OCO2 (stereo not drawn)	SW-620 colon	YES
Clc1nc(Cl)c(-c2ccccc2)c(Cl)n1	SW-620 colon	NO
O=C(Cc1ccccc1)NNc1nc(NNC(=O)c2ccncc2)nc(Nc2cccc(Cl)c2)n1	SW-620 colon	YES
CC(=O)Nc1ccc(/C=C/C(=O)c2sc(-c3nc(C)c(C(=O)/C=C/c4ccc(NC(C)=O)cc4)s3)nc2C)cc1	SW-620 colon	YES
